Target: IRE1α (Homo sapiens, UniProt O75460)
Sequence (O75460 19-977): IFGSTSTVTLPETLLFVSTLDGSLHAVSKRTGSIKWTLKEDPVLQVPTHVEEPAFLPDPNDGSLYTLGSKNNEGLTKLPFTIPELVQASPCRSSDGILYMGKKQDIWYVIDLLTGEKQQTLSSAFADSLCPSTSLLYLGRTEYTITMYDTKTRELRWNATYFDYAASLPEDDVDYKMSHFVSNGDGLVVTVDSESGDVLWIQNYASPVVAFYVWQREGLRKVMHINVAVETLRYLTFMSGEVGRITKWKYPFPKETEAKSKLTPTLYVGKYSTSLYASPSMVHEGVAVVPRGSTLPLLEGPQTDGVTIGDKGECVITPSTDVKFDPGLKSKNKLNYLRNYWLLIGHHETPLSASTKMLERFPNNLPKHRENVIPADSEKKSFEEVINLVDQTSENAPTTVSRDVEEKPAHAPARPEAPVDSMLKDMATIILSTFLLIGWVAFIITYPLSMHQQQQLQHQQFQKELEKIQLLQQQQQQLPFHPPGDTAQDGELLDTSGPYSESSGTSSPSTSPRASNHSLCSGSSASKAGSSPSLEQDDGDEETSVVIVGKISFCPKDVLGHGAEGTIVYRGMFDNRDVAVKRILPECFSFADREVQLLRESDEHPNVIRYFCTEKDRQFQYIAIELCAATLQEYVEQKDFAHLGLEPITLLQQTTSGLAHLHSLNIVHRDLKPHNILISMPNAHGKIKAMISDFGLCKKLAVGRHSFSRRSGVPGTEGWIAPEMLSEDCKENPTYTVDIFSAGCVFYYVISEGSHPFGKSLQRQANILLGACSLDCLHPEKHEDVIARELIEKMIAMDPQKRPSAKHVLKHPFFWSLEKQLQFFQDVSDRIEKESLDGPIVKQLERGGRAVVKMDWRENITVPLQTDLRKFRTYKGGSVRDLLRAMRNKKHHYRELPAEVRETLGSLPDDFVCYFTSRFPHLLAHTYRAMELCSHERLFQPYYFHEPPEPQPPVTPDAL
Experiment: In vitro FRET assay (XBP1 RNA probe cleavage by IRE1α)
Settings: biochemical FRET assay, 2 nM IRE1α
pEC50: −log10 of the molar value.
Catalogue of molecules with associated pEC50

Some molecules with recorded pEC50:
| molecule | target | pEC50 |
| --- | --- | --- |
| Cc1c(NC(=O)Nc2ccc(CN3CCN(C)CC3)c(C(F)(F)F)c2)ccc2oc(-c3cnn4ccccc34)nc12 [Compound 18] | IRE1α (Homo sapiens, UniProt O75460) | < 4.00 |
| Cn1nc(NC(=O)Nc2ccccc2F)cc1-c1ccc2ccncc2c1 [Compound 69] | IRE1α (Homo sapiens, UniProt O75460) | < 4.00 |
| CN1CCN(Cc2ccc(NC(=O)Nc3ccc4oc(-c5cnn6ccccc56)nc4c3)cc2C(F)(F)F)CC1 [Compound 16] | IRE1α (Homo sapiens, UniProt O75460) | ≥ 5.30 |
| CN1COc2cc(NC(=O)Nc3cc(-c4ccc5ccncc5c4)n(C)n3)ccc2C1 [Compound 62] | IRE1α (Homo sapiens, UniProt O75460) | < 4.00 |

// returns reported pEC50 for input Cn1nc(NC(=O)Nc2ccc(CN3CCC(O)CC3)c(C(F)(F)F)c2)cc1-c1ccc2ccncc2c1 [Compound 41] < 4.00

Proceed to CN1CCN(Cc2ccc(NC(=O)Nc3cc(-c4cccn5ccnc45)n(C)n3)cc2C(F)(F)F)CC1 [Compound 5] < 4.00

Please do the same for Cn1nc(NS(=O)(=O)c2cccc(C(F)(F)F)c2)cc1-c1ccc2ccncc2c1 [Compound 72] as well. 4.00 to 4.30

Would you mind doing CN1CCN(Cc2ccc(Nc3c(Nc4cc(-c5ccc6nc(N)ncc6c5)n(C)n4)c(=O)c3=O)cc2C(F)(F)F)CC1 [Compound 75] as well? ≥ 5.30

----------
The entries below come with measured pEC50 values attached.
Target: UniProt O75460
Experiment: In vitro FRET assay (XBP1 RNA probe cleavage by IRE1α)
Conditions: biochemical FRET assay, 2 nM IRE1α
pEC50: −log10 of the molar value.

The examples below pair each entry with its known result.
| compound | target | property | recorded.result |
| --- | --- | --- | --- |
| CC1CCCCN1Cc1ccc(NC(=O)Nc2cc(-c3ccc4ccncc4c3)n(C)n2)cc1C(F)(F)F (stereo not shown) [Compound 43] | UniProt O75460 | pEC50 | < 4.00 |
| CN1CCC(Cc2ccc(NC(=O)Nc3cc(-c4ccc5cc(N)ncc5c4)n(C)n3)cc2C(F)(F)F)CC1 [Compound 48] | UniProt O75460 | pEC50 | 4.30 to 5.30 |
| CN1CCN(Cc2ccc(NC(=O)Nc3nn(C)c4cc(-c5cccnc5)ccc34)cc2C(F)(F)F)CC1 [Compound 1] | UniProt O75460 | pEC50 | ≥ 5.30 |

Note: attention shifts to another entry.
Give pEC50 (UniProt O75460) of the following compound: Cn1nc(NC(=O)Nc2ccc(CN3CCC(c4ccccc4)CC3)c(C(F)(F)F)c2)cc1-c1ccc2ccncc2c1 [Compound 40] < 4.00

----------
Molecular target: IRE1α (Homo sapiens)
Assay: In vitro FRET assay (XBP1 RNA probe cleavage by IRE1α)
Conditions: biochemical FRET assay, 2 nM IRE1α
pEC50: −log10 of the molar value.
Each entry below carries its reported pEC50.

| smiles.record | target | pEC50 |
| --- | --- | --- |
| CNS(=O)(=O)c1ccc(NC(=O)Nc2cc(-c3ccc4ccncc4c3)n(C)n2)cc1 | IRE1α (Homo sapiens) | < 4.00 |
| CN1CCN(Cc2ccc(NC(=O)Nc3cc(-c4ccc5nc(N)nc(N)c5c4)n(C)n3)cc2C(F)(F)F)CC1 | IRE1α (Homo sapiens) | ≥ 5.30 |
| Cn1nc(NC(=O)Nc2ccccc2)cc1-c1ccc2ccncc2c1 | IRE1α (Homo sapiens) | < 4.00 |
| CN1CCN(Cc2ccc(NC(=O)Cc3cc(-c4ccc5cc(N)ncc5c4)n(C)n3)cc2C(F)(F)F)CC1 | IRE1α (Homo sapiens) | < 4.00 |
| Cc1nc(NC(=O)Nc2ccc(CN3CCN(C)CC3)c(C(F)(F)F)c2)n(C)c1-c1ccc2cc(N)ncc2c1 | IRE1α (Homo sapiens) | 4.30 to 5.30 |

If you can, please state the reported pEC50 value of `CN1CCN(Cc2ccc(NC(=O)Nc3cc(-c4ccc5oncc5c4)n(C)n3)cc2C(F)(F)F)CC1` . < 4.00

Now consider `CN1CCN(Cc2ccc(NC(=O)Nc3cc(-c4ccc5cc(N)ncc5c4)[nH]n3)cc2C(F)(F)F)CC1` and answer again. ≥ 5.30
